target: recombinant human melanocortin-1 receptor hMCR-1a (human) (UniProt Q01726); assay: competition with [I125]-NDP-α-MSH; HEK-293 hMCR-1a membrane homogenates
Sequence (Q01726 whole entry): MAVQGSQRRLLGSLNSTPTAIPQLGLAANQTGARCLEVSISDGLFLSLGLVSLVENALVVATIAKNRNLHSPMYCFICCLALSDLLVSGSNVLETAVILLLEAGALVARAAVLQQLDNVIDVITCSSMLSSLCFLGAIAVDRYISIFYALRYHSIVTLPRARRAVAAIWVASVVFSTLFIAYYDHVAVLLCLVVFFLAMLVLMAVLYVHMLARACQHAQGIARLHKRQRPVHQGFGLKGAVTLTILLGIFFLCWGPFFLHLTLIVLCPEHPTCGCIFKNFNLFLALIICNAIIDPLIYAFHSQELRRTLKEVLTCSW
Bridge positions count the residues as written; N and C are the ends. Square brackets hold non-standard residues; d marks the D form. Nle = CCCC[C@H](N)C(=O)O; Dab = NCC[C@H](N)C(=O)O

BINDER: Ac-[Nle]EH[dF]R[Dab]K-NH2 (lactam 2-6; SMILES CCCC[C@H](NC(C)=O)C(=O)N[C@H]1CCC(=O)NCC[C@@H](C(=O)N[C@@H](CCCCN)C(N)=O)NC(=O)[C@H](CCCNC(=N)N)NC(=O)[C@@H](Cc2ccccc2)NC(=O)[C@H](Cc2c[nH]cn2)NC1=O) [Ac-Nle-cyclo(Glu-His-D-Phe-Arg-Dab)-Lys-NH2 (SEQ ID NO: 55)]
UNITS SYMBOL: nM
Ki: 2
--
BINDER: Ac-[Nle]EH[dF]A[Dab]W-NH2 (lactam 2-6; SMILES CCCC[C@H](NC(C)=O)C(=O)N[C@H]1CCC(=O)NCC[C@@H](C(=O)N[C@@H](Cc2c[nH]c3ccccc23)C(N)=O)NC(=O)[C@H](C)NC(=O)[C@@H](Cc2ccccc2)NC(=O)[C@H](Cc2c[nH]cn2)NC1=O) [Ac-Nle-cyclo(Glu-His-D-Phe-Ala-Dab)-Trp-NH2]
UNITS SYMBOL: nM
Ki: 0.08
--
BINDER: Ac-[Nle]EH[dF]A[Dab]W-NH2 (lactam 2-6; SMILES CCCC[C@H](NC(C)=O)C(=O)N[C@H]1CCC(=O)NCC[C@@H](C(=O)N[C@@H](Cc2c[nH]c3ccccc23)C(N)=O)NC(=O)[C@H](C)NC(=O)[C@@H](Cc2ccccc2)NC(=O)[C@H](Cc2c[nH]cn2)NC1=O) [Ac-Nle-cyclo(Glu-His-D-Phe-Ala-Dab)-Trp-NH2 (SEQ ID NO: 51)]
UNITS SYMBOL: nM
Ki: 0.08
--
BINDER: Ac-[Nle]EH[dF]G[Dab]W-NH2 (lactam 2-6; SMILES CCCC[C@H](NC(C)=O)C(=O)N[C@H]1CCC(=O)NCC[C@@H](C(=O)N[C@@H](Cc2c[nH]c3ccccc23)C(N)=O)NC(=O)CNC(=O)[C@@H](Cc2ccccc2)NC(=O)[C@H](Cc2c[nH]cn2)NC1=O) [Ac-Nle-cyclo(Glu-His-D-Phe-Gly-Dab)-Trp-NH2 (SEQ ID NO: 50)]
UNITS SYMBOL: nM
Ki: 9
